# System: Micrococcus luteus DSM 1790
# RUN_DESCRIPTION: MIC determination (broth microdilution)
# Format: cell-based
# CONDITION_INFO: DSM1790, read-out: MIC M. luteus
Give measured MIC for each item. Keep answers brief.
Lab book: enter the figure in µg/mL, no units written.

Value of measured MIC for the entry COc1c(NC(=O)c2ccc(NC(=O)c3ccc(NC(=O)[C@H](Cc4c[nH]nn4)NC(=O)c4ccc(NC(=O)c5ccc6nc[nH]c6c5)cc4)cn3)c(OC)c2O)ccc(C(=O)O)c1O : 2

Value of measured MIC for the entry COc1c(NC(=O)c2ccc(NC(=O)c3ccc(NC(=O)[C@H](Cc4cn[nH]n4)NC(=O)c4ccc(NC(=O)/C(C)=C/c5ccc(O)cc5)cc4)cn3)c(OC)c2O)ccc(C(=O)O)c1O [compound 3, reference compound] : 0.031

Value of measured MIC for the entry CCn1cc(C(=O)Nc2ccc(C(=O)N[C@@H](Cc3c[nH]nn3)C(=O)Nc3ccc(C(=O)Nc4ccc(C(=O)Nc5ccc(C(=O)O)c(O)c5OC)c(O)c4OC)nc3)cc2)c(=O)c2ccc(C)nc21 : 0.031

Value of measured MIC for the entry COc1c(NC(=O)c2ccc(NC(=O)c3ccc(NC(=O)[C@H](Cc4c[nH]nn4)NC(=O)c4ccc(NC(=O)c5ccc6ncccc6c5)cc4)cn3)c(OC)c2O)ccc(C(=O)O)c1O : 0.125

Value of measured MIC for the entry COc1c(NC(=O)c2ccc(NC(=O)c3ccc(NC(=O)[C@H](Cc4c[nH]nn4)NC(=O)c4ccc(NC(=O)c5ccc(F)cn5)cc4)cn3)c(OC)c2O)ccc(C(=O)O)c1O : 0.125

Value of measured MIC for the entry COc1c(NC(=O)c2ccc(NC(=O)c3ccc(NC(=O)[C@H](Cc4c[nH]nn4)NC(=O)c4ccc(NC(=O)c5ccc6ncsc6c5)cc4)cn3)c(OC)c2O)ccc(C(=O)O)c1O : 0.125

Value of measured MIC for the entry COc1c(NC(=O)c2ccc(NC(=O)c3ccc(NC(=O)[C@H](Cc4c[nH]nn4)NC(=O)c4ccc(NC(=O)c5cnc6ccccc6c5)cc4)cn3)c(OC)c2O)ccc(C(=O)O)c1O : 0.125

* * *

Give measured Rt (retention time) for each item. Keep answers brief.
# RUN_DESCRIPTION: Reverse-phase HPLC retention time as estimate of lipophilicity
# Format: physicochemical
# CONDITION_INFO: indicator of lipophilicity
Lab book: enter the figure in min, no units written.

Value of measured Rt (retention time) for the entry COc1c(NC(=O)c2ccc(NC(=O)c3ccc(NC(=O)[C@H](Cc4c[nH]nn4)NC(=O)c4ccc(NC(=O)c5ccc(F)cn5)cc4)cn3)c(OC)c2O)ccc(C(=O)O)c1O : 8.29

Value of measured Rt (retention time) for the entry CCn1cc(C(=O)Nc2ccc(C(=O)N[C@@H](Cc3c[nH]nn3)C(=O)Nc3ccc(C(=O)Nc4ccc(C(=O)Nc5ccc(C(=O)O)c(O)c5OC)c(O)c4OC)nc3)cc2)c(=O)c2cc3c(cc21)OCO3 : 8.45

Value of measured Rt (retention time) for the entry COc1c(NC(=O)c2ccc(NC(=O)c3ccc(NC(=O)[C@H](Cc4c[nH]nn4)NC(=O)c4ccc(NC(=O)c5cc(=O)c6cc(F)ccc6o5)cc4)cn3)c(OC)c2O)ccc(C(=O)O)c1O : 8.60

Value of measured Rt (retention time) for the entry COc1ccc(C(=O)Nc2ccc(C(=O)N[C@@H](Cc3c[nH]nn3)C(=O)Nc3ccc(C(=O)Nc4ccc(C(=O)Nc5ccc(C(=O)O)c(O)c5OC)c(O)c4OC)nc3)cc2)nc1 : 8.29

Value of measured Rt (retention time) for the entry COc1c(NC(=O)c2ccc(NC(=O)c3ccc(NC(=O)[C@H](Cc4c[nH]nn4)NC(=O)c4ccc(NC(=O)c5ccc6ncccc6c5)cc4)cn3)c(OC)c2O)ccc(C(=O)O)c1O : 7.67

* * *

Give measured Rt (retention time) for each item. Keep answers brief.
# RUN_DESCRIPTION: Reverse-phase HPLC retention time as estimate of lipophilicity
# Format: physicochemical
# CONDITION_INFO: indicator of lipophilicity
Lab book: enter the figure in min, no units written.

Value of measured Rt (retention time) for the entry CCn1cc(C(=O)Nc2ccc(C(=O)N[C@@H](Cc3c[nH]nn3)C(=O)Nc3ccc(C(=O)Nc4ccc(C(=O)Nc5ccc(C(=O)O)c(O)c5OC)c(O)c4OC)nc3)cc2)c(=O)c2ccc(C)nc21 : 9.24

Value of measured Rt (retention time) for the entry COc1c(NC(=O)c2ccc(NC(=O)c3ccc(NC(=O)[C@H](Cc4c[nH]nn4)NC(=O)c4ccc(NC(=O)c5ccc([N+](=O)[O-])cn5)cc4)cn3)c(OC)c2O)ccc(C(=O)O)c1O : 8.30

Value of measured Rt (retention time) for the entry COc1c(NC(=O)c2ccc(NC(=O)c3ccc(NC(=O)[C@H](Cc4c[nH]nn4)NC(=O)c4ccc(NC(=O)c5ccc6ccccc6n5)cc4)cn3)c(OC)c2O)ccc(C(=O)O)c1O : 9.49
